# measurement.protocol: Stability / hydrolysis-fragmentation of E-16 (anilinium salt E-19) in water
# Format: physicochemical
# stated.conditions: water, pH 3; pH about 3, 52 hr; read-out: decomposition in H2O
assay.endpoint: degraded at 52 h

Could you share which degraded at 52 h value was measured for O=C(Oc1ccc([N+](=O)[O-])cc1)/C(=N\O)P(=O)(O)O ? < 4%

----------
# measurement.protocol: pH dependence of the stability of DCHA+ salts 3 in D2O (31P NMR)
# Assay type: physicochemical
# stated.conditions: t = 24 h, pH 2.0, D2O, 22° C.; read-out: Z isomer (% int, 31P NMR)
assay.endpoint: remaining at 24 h (%)
Kindly provide the numeric value in % only, without the unit symbol.

Could you share which remaining at 24 h value was measured for COC(=O)/C(=N/O)P(=O)(O)O ? 100

----------
# measurement.protocol: pH dependence of the stability of DCHA+ salts 3 in D2O (31P NMR)
# Assay type: physicochemical
# stated.conditions: t = 24 h, pH 4.0, D2O, 22° C.; read-out: E isomer (% int, 31P NMR)
assay.endpoint: remaining at 24 h

Could you share which remaining at 24 h value was measured for COC(=O)/C(=N\O)P(=O)(O)O ? 100%

----------
# measurement.protocol: pH dependence of the stability of DCHA+ salts 3 in D2O (31P NMR)
# Type: physicochemical
# stated.conditions: t = 24 h, pH 11.0, D2O, 22° C.; read-out: Z isomer (% int, 31P NMR)
assay.endpoint: remaining at 24 h (%)
Kindly provide the numeric value in % only, without the unit symbol.

Could you share which remaining at 24 h value was measured for COC(=O)/C(=N/O)P(=O)(O)O ? 76.3

----------
# measurement.protocol: physchem
# stated.conditions: water, pH 6
assay.endpoint: half-life

Could you share which half-life value was measured for O=C(O)/C(=N\O)P(=O)(O)O [E-4] ? < 10 min

----------
# measurement.protocol: physchem
# stated.conditions: d2o, pH 6
assay.endpoint: half-life

Could you share which half-life value was measured for O=C(O)/C(=N/O)P(=O)(O)O ? ~5 min

----------
# measurement.protocol: pH dependence of the stability of DCHA+ salts 3 in D2O (31P NMR)
# Assay type: physicochemical
# stated.conditions: t = 24 h, pH 8.3, D2O, 22° C.; read-out: Z isomer (% int, 31P NMR)
assay.endpoint: remaining at 24 h (%)
Kindly provide the numeric value in % only, without the unit symbol.

Could you share which remaining at 24 h value was measured for COC(=O)/C(=N/O)P(=O)(O)O ? 92.6

----------
# measurement.protocol: pH dependence of the stability of DCHA+ salts 3 in D2O (31P NMR)
# Type: physicochemical
# stated.conditions: t = 24 h, pH 11.0, D2O, 22° C.; read-out: E isomer (% int, 31P NMR)
assay.endpoint: remaining at 24 h (%)
Kindly provide the numeric value in % only, without the unit symbol.

Could you share which remaining at 24 h value was measured for COC(=O)/C(=N\O)P(=O)(O)O [E-3] ? 76.2

----------
# measurement.protocol: physchem
# stated.conditions: d2o, pH 5.7
assay.endpoint: half-life

Could you share which half-life value was measured for O=C(O)/C(=N\O)P(=O)(O)O ? < 10 min

----------
# measurement.protocol: pH dependence of the stability of DCHA+ salts 3 in D2O (31P NMR)
# Type: physicochemical
# stated.conditions: t = 24 h, pH 4.2, D2O, 22° C.; read-out: Z isomer (% int, 31P NMR)
assay.endpoint: remaining at 24 h (%)
Kindly provide the numeric value in % only, without the unit symbol.

Could you share which remaining at 24 h value was measured for COC(=O)/C(=N/O)P(=O)(O)O ? 100
